Tested on: HGC27 (Human Gastric Cancer Cell)
procedure_text: Bioactivity assay for HGC27 cell growth inhibition (CellTiter-Glo)
Assay type: cell-based
condition_notes: HGC-27, HGC27 cells, 24 hours, CellTiter-Glo, highest concentration 10 μM, read-out: HGC27 CTG IC50
Give pIC50 for every item shown.
Note on pIC50: it is the negative log10 of concentration, concentration in mol/L.

Prompt: # query: pIC50 of entry CO[C@@H](C)[C@@H](Nc1nc(NCc2ccc3c(c2)nn2c(CO)ccnc32)ncc1C(F)(F)F)C(N)=O
Response: 7.42

Prompt: Try this molecule next: COc1ccnc2c1[nH]c1cc(CNc3ncc(C(F)(F)F)c(N[C@@H](C(N)=O)[C@H](C)OC)n3)ccc12
Response: 7.37

Prompt: Try this molecule next: CCC[C@@H](Nc1nc(NCc2ccc3c(c2)[nH]c2c(CN)ccnc23)ncc1C(F)(F)F)C(N)=O
Response: 7.49

Prompt: Try this molecule next: FC(F)(F)c1cnc(NCc2ccc3c(c2)[nH]c2cccnc23)nc1OC1COC1
Response: 6.86

---

System: HGC27 (Human Gastric Cancer Cell)
procedure_text: Bioactivity assay for HGC27 cell growth inhibition (CellTiter-Glo)
Assay type: cell-based
condition_notes: HGC-27, HGC27 cells, 24 hours, CellTiter-Glo, highest concentration 10 μM, read-out: HGC27 CTG IC50
pIC50: −log10 of the molar value.
Label scheme for pIC50: lower than 7 is not satisfied, 7 and above is satisfied.

Prompt: Answer whether pIC50 of C[C@@H](O)[C@@H](C)Nc1nc(NCc2ccc3c(c2)[nH]c2c(CO)ccnc23)ncc1C(F)(F)F is greater than or equal to 7.
Response: satisfied

Prompt: Try this molecule next: NCc1ccnc2c1[nH]c1cc(CNc3ncc(C(F)(F)F)c(N[C@@H](C(N)=O)C4CCCC4)n3)ccc12
Response: satisfied

Prompt: Try this molecule next: Cn1c2cc(CNc3ncc(C(F)(F)F)c(OC4COC4)n3)ccc2c2ncccc21
Response: not satisfied

Prompt: Try this molecule next: FC(F)(F)c1cnc(NCc2ccc3c(c2)[nH]c2scnc23)nc1OC1COC1
Response: not satisfied

Prompt: Try this molecule next: FC(F)(F)c1cnc(NCc2cc3[nH]c4cccnc4c3s2)nc1OC1COC1
Response: not satisfied

Prompt: Try this molecule next: Cn1c2cc(CNc3ncc(C(F)(F)F)c(N[C@@H]4CNCC[C@@H]4O)n3)ccc2c2nccc(C#N)c21
Response: satisfied

---

Give pIC50 for every item shown.
Tested on: HGC27 (Human Gastric Cancer Cell)
procedure_text: Bioactivity assay for HGC27 cell growth inhibition (CellTiter-Glo)
Format: cell-based
condition_notes: HGC-27, HGC27 cells, 24 hours, CellTiter-Glo, highest concentration 10 μM, read-out: HGC27 CTG IC50
Note on pIC50: it is the negative log10 of concentration, concentration in mol/L.

Prompt: # query: pIC50 of entry C[C@@H](Nc1nc(NCc2ccc3c(c2)[nH]c2c(CO)ccnc23)ncc1C(F)(F)F)C(N)=O
Response: 7.10

Prompt: Try this compound next: N#Cc1ccnc2c1[nH]c1cc(CNc3ncc(C(F)(F)F)c(N[C@@H]4CN(C(=O)CO)CC[C@@H]4O)n3)ccc12
Response: 7.32

Prompt: Try this compound next: C[C@@H](O)[C@@H](CO)Nc1nc(NCc2ccc3c(c2)[nH]c2c(CO)ccnc23)ncc1C(F)(F)F
Response: 7.39

Prompt: Try this compound next: OCc1ccnc2c1[nH]c1cc(CNc3ncc(C(F)(F)F)c(N[C@@H]4CCNC[C@@H]4O)n3)ccc12
Response: 6.82

Prompt: Try this compound next: N#Cc1ccnc2c1[nH]c1cc(CNc3ncc(C(F)(F)F)c(N[C@@H]4CNC[C@@H]4O)n3)ccc12
Response: 8.22

Prompt: Try this compound next: NCc1ccnc2c1[nH]c1cc(CNc3ncc(C(F)(F)F)c(N[C@@H](C(N)=O)C4CC4)n3)ccc12
Response: 7.70

Prompt: Try this compound next: C[C@@H](N)[C@@H](C)Oc1nc(NCc2ccc3c(c2)[nH]c2c(CO)ccnc23)ncc1C(F)(F)F
Response: 8.31

Provenance of the data: patent US20260209211A1
